system_name: T1, Recombinant human MASP1 enzyme (fragment corresponding to amino acids 297-699, C-terminal His Tag) (human, UniProt P48740 297-699)
T1 sequence: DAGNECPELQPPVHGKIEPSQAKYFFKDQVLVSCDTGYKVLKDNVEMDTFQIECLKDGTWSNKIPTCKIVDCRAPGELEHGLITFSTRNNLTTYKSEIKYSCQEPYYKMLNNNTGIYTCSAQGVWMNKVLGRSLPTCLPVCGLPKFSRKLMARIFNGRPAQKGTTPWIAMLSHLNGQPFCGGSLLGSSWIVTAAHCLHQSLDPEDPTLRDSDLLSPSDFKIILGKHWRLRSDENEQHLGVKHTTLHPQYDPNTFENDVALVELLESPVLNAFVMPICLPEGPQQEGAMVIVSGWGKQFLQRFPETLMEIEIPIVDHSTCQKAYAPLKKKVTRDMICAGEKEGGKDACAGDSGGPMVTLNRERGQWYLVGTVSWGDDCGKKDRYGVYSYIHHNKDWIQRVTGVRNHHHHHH
method_notes: cell-based or functional assay
Numbered stars: 1 amine (or outer) side, 2 acyl side, 3 side chain; on linkers, the order of the positions; unused ones are H or OH. Bridge positions count the residues as written; N and C are the ends. Square brackets hold non-standard residues; d marks the D form. Ends that are not written are not given here. NH(CH2CH2O)5CH2CO = O=C(COCCOCCOCCOCCOCCN[*:1])[*:2]; Pro(4-spirocPr) = O=C(O)[C@@H]1CC2(CC2)CN1; Oic = O=C(O)[C@@H]1C[C@@H]2CCCC[C@@H]2N1; tBuAla = CC(C)(C)C[C@H](N)C(=O)O; Pen = CC(C)(S)[C@H](N)C(=O)O; Orn = NCCC[C@H](N)C(=O)O; Sar = CNCC(=O)O

| binder | unit_of_measure | human MASP1 IC50 |
| --- | --- | --- |
| [Sar]ICSRSLP[Oic]I[Pen]IPDD-OH (disulfide 3-11; N-terminus assumed; SMILES CC[C@H](C)[C@H](NC(=O)CNC)C(=O)N[C@H]1CSSC(C)(C)[C@@H](C(=O)N[C@H](C(=O)N2CCC[C@H]2C(=O)N[C@@H](CC(=O)O)C(=O)N[C@@H](CC(=O)O)C(=O)O)[C@@H](C)CC)NC(=O)[C@H]([C@@H](C)CC)NC(=O)[C@@H]2C[C@@H]3CCCC[C@@H]3N2C(=O)[C@@H]2CCCN2C(=O)[C@H](CC(C)C)NC(=O)[C@H](CO)NC(=O)[C@H](CCCNC(=N)N)NC(=O)[C@H](CO)NC1=O) [((N-Me)G)-IC+SRSLP-(Oic)-I-(Pen)+IPDD-OH] | nM | 0.72 |
| AICSRSL[(1S,2S,5R)‑3‑Azabicyclo(3.1.0)hexane‑2‑carboxylic acid]PI[Pen]IPD-OH (disulfide 3-11) [AIC+SRSL-((1S,2S,5R)-3-Azabicyclo[3.1.0]hexane-2-carboxylic acid)-PI-(Pen)+IPD-OH] | nM | 1.7 |
| AICSRSLP[Oic]I[Pen]IP[βDap]-OH (disulfide 3-11; also: C-terminal Dap bonded through its side-chain amino group) [AIC+SRSLP-(Oic)-I-(Pen)+IP-(*Dap)-OH] | nM | 5.1 |
| [Sar]ICSRSLP[Oic]I[Pen]IPT-OH (disulfide 3-11; N-terminus assumed; SMILES CC[C@H](C)[C@H](NC(=O)CNC)C(=O)N[C@H]1CSSC(C)(C)[C@@H](C(=O)N[C@H](C(=O)N2CCC[C@H]2C(=O)N[C@H](C(=O)O)[C@@H](C)O)[C@@H](C)CC)NC(=O)[C@H]([C@@H](C)CC)NC(=O)[C@@H]2C[C@@H]3CCCC[C@@H]3N2C(=O)[C@@H]2CCCN2C(=O)[C@H](CC(C)C)NC(=O)[C@H](CO)NC(=O)[C@H](CCCNC(=N)N)NC(=O)[C@H](CO)NC1=O) [((N-Me)G)-IC+SRSLP-(Oic)-I-(Pen)+IPT-OH] | nM | 3 |
| [dA]ICSRS[tBuAla]P[Pro(4-spirocPr)]I[Pen]IPD-OH (disulfide 3-11; N-terminus assumed; SMILES CC[C@H](C)[C@H](NC(=O)[C@@H](C)N)C(=O)N[C@H]1CSSC(C)(C)[C@@H](C(=O)N[C@H](C(=O)N2CCC[C@H]2C(=O)N[C@@H](CC(=O)O)C(=O)O)[C@@H](C)CC)NC(=O)[C@H]([C@@H](C)CC)NC(=O)[C@@H]2CC3(CC3)CN2C(=O)[C@@H]2CCCN2C(=O)[C@H](CC(C)(C)C)NC(=O)[C@H](CO)NC(=O)[C@H](CCCNC(=N)N)NC(=O)[C@H](CO)NC1=O) [aIC+SRS-((tBu)A)-P-((6S)-5-Azaspiro[2.4]heptane-6-carboxylic acid)-I-(Pen)+IPD-OH] | nM | 4.4 |
| [Sar]ICSRS[tBuAla]PPI[Pen]IP[Sar][Sar][Sar]-OH (disulfide 3-11; N-terminus assumed; SMILES CC[C@H](C)[C@H](NC(=O)CNC)C(=O)N[C@H]1CSSC(C)(C)[C@@H](C(=O)N[C@H](C(=O)N2CCC[C@H]2C(=O)N(C)CC(=O)N(C)CC(=O)N(C)CC(=O)O)[C@@H](C)CC)NC(=O)[C@H]([C@@H](C)CC)NC(=O)[C@@H]2CCCN2C(=O)[C@@H]2CCCN2C(=O)[C@H](CC(C)(C)C)NC(=O)[C@H](CO)NC(=O)[C@H](CCCNC(=N)N)NC(=O)[C@H](CO)NC1=O) [((N-Me)G)-IC+SRS-((tBu)A)-PPI-(Pen)+IP-((N-Me)G)-((N-Me)G)-((N-Me)G)-OH] | nM | 2.3 |
| [Sar]ICSRS[tBuAla]PPI[Pen]IP[NH(CH2CH2O)5CH2CO]-OH (disulfide 3-11; N-terminus assumed; SMILES CC[C@H](C)[C@H](NC(=O)CNC)C(=O)N[C@H]1CSSC(C)(C)[C@@H](C(=O)N[C@H](C(=O)N2CCC[C@H]2C(=O)NCCOCCOCCOCCOCCOCC(=O)O)[C@@H](C)CC)NC(=O)[C@H]([C@@H](C)CC)NC(=O)[C@@H]2CCCN2C(=O)[C@@H]2CCCN2C(=O)[C@H](CC(C)(C)C)NC(=O)[C@H](CO)NC(=O)[C@H](CCCNC(=N)N)NC(=O)[C@H](CO)NC1=O) [((N-Me)G)-IC+SRS-((tBu)A)-PPI-(Pen)+IP-(PEG5-CH2CO2H(18 atoms))-OH] | nM | 2 |
| [Sar]ICSRS[tBuAla]PPI[Pen]IP[Orn]D-OH (disulfide 3-11; N-terminus assumed; SMILES CC[C@H](C)[C@H](NC(=O)CNC)C(=O)N[C@H]1CSSC(C)(C)[C@@H](C(=O)N[C@H](C(=O)N2CCC[C@H]2C(=O)N[C@@H](CCCN)C(=O)N[C@@H](CC(=O)O)C(=O)O)[C@@H](C)CC)NC(=O)[C@H]([C@@H](C)CC)NC(=O)[C@@H]2CCCN2C(=O)[C@@H]2CCCN2C(=O)[C@H](CC(C)(C)C)NC(=O)[C@H](CO)NC(=O)[C@H](CCCNC(=N)N)NC(=O)[C@H](CO)NC1=O) [((N-Me)G)-IC+SRS-((tBu)A)-PPI-(Pen)+IP-(Orn)-D-OH] | nM | 3.8 |
